test summary: Metabolic stability in rat liver microsomes assessed as parent compound remaining at 0.2 uM preincubated for 5 mins followed by NADPH addition measured up to 60 mins by UPLC-MS/MS analysis
Format: ADME, microsome
experimental setup: read-out: Stability
Could you please report measured remaining at 1 h, 0.2 µM for the items listed next?

Entry under review: `CC[Si](CC)(CC)c1ccc(N2[C@H](c3ccc(NC(=O)[C@@H]4CCCN4C(=O)[C@@H](NC(=O)OC)C(C)C)cc3)CC[C@H]2c2ccc(NC(=O)[C@@H]3CCCN3C(=O)[C@@H](NC(=O)OC)C(C)C)cc2)cc1` . Reported remaining at 1 h, 0.2 µM? 98%

Also need `COC(=O)N[C@H](C(=O)N1CCC[C@H]1C(=O)Nc1ccc([C@@H]2CC[C@@H](c3ccc(NC(=O)[C@@H]4CCCN4C(=O)[C@@H](NC(=O)OC)C(C)C)cc3)N2c2ccc([Si](C)(C)C)cc2)cc1)C(C)C` , thanks. 101%

Same question, `COC(=O)N[C@H](C(=O)N1CCC[C@H]1C(=O)Nc1ccc([C@@H]2CC[C@@H](c3ccc(NC(=O)[C@@H]4CCCN4C(=O)[C@@H](NC(=O)OC)C(C)C)cc3)N2c2ccc([Si](C)(C)C(C)(C)C)cc2)cc1)C(C)C` this time 87%

Now give it for `COC(=O)N[C@H](C(=O)N1CCC[C@H]1C(=O)Nc1ccc([C@@H]2CC[C@@H](c3ccc(NC(=O)[C@@H]4CCCN4C(=O)[C@@H](NC(=O)OC)C(C)C)cc3)N2c2ccc(C(C)(C)C)cc2)cc1)C(C)C` too. 101%

----------
test summary: Cytotoxicity against HUVEC assessed as growth inhibition at 50 uM relative to control
Assay type: cell-based
experimental setup: human, read-out: GI
I'd appreciate it if you could supply inhibition at 50 µM values for the items below.
Output spec: scalar in %, unitless text.

Look up inhibition at 50 µM for this molecule: `CC[Si](CC)(CC)c1ccc(N2[C@H](c3ccc(NC(=O)[C@@H]4CCCN4C(=O)[C@@H](NC(=O)OC)C(C)C)cc3)CC[C@H]2c2ccc(NC(=O)[C@@H]3CCCN3C(=O)[C@@H](NC(=O)OC)C(C)C)cc2)cc1` 16.6

What do we get for `COC(=O)N[C@H](C(=O)N1CCC[C@H]1C(=O)Nc1ccc([C@@H]2CC[C@@H](c3ccc(NC(=O)[C@@H]4CCCN4C(=O)[C@@H](NC(=O)OC)C(C)C)cc3)N2c2ccc(C(C)(C)C)cc2)cc1)C(C)C` ? 11.8

----------
experimental target: hERG (KCNH2) (Homo sapiens)
Sequence (Q12809 whole entry): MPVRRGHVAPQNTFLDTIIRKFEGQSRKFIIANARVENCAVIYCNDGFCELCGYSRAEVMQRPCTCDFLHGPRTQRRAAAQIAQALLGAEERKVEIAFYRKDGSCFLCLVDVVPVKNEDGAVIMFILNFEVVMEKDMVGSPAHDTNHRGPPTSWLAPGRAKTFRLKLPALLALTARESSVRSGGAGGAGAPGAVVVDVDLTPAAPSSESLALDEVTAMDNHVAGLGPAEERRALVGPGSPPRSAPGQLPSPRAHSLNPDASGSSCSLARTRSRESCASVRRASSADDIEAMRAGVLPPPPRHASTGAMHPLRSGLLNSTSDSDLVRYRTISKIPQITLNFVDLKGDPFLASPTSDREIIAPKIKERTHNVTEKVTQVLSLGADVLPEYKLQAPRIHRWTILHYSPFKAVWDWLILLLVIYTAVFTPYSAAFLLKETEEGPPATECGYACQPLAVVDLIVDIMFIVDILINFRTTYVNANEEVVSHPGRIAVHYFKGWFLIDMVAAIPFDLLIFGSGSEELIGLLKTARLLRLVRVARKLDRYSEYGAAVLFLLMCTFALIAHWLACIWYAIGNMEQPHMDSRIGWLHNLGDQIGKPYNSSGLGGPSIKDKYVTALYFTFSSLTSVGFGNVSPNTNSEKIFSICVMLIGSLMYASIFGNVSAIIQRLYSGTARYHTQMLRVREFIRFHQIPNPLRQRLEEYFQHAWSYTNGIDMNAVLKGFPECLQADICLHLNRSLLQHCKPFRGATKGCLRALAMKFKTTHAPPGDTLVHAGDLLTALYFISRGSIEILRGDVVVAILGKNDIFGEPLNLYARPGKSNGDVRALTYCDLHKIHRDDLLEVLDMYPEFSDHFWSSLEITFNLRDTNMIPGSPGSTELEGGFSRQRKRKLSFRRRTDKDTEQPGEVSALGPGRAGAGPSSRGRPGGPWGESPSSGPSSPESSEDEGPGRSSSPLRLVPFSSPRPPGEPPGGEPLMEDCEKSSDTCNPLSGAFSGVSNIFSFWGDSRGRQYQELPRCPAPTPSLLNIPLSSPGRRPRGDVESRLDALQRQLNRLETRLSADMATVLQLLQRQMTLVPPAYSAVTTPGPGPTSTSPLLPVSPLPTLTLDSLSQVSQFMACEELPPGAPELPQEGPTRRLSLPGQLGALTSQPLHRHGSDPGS
test summary: Inhibition of human ERG assessed as reduction in peak tail current at 3 uM at holding potential of -80 mV by patch clamp method relative to control
Would you kindly list inhibition at 3 µM for each of these compounds?
Give the quantity in %, number only.

# inhibition at 3 µM lookup, item `CC[Si](CC)(CC)c1ccc(N2[C@H](c3ccc(NC(=O)[C@@H]4CCCN4C(=O)[C@@H](NC(=O)OC)C(C)C)cc3)CC[C@H]2c2ccc(NC(=O)[C@@H]3CCCN3C(=O)[C@@H](NC(=O)OC)C(C)C)cc2)cc1` 6.9

For COC(=O)N[C@H](C(=O)N1CCC[C@H]1C(=O)Nc1ccc([C@@H]2CC[C@@H](c3ccc(NC(=O)[C@@H]4CCCN4C(=O)[C@@H](NC(=O)OC)C(C)C)cc3)N2c2ccc(C(C)(C)C)cc2)cc1)C(C)C [OMBITASVIR] then? 1.1
